Reference source: the Human Domainome abundance scans (Beltran et al. 2025)

B1: RNA-binding E3 ubiquitin-protein ligase MEX3C, residues 325 to 391; numbered along this chain, Q5U5Q3 (parent)
chain: GQTTVQVRVPYRVVGLVVGPKGATIKRIQQQTHTYIVTPSRDKEPVFEVTGMPENVDRAREEIEMHI

- Variants of: B1
- Protocol details: abundance fitness (aPCA) (normalised: wild type 0, dead -1); higher = more abundant; growth selection in yeast, the domain comes from the species named
- Experimental conditions: Homo sapiens
# Lookup of reported abundance fitness keyed by entry
The response must contain the number and no unit.

Prompt line: Can you share its abundance fitness? I mean this variant: P20G
Response line: -0.717

Prompt line: What measured abundance fitness goes with G51K ?
Response line: -0.448

Prompt line: Returns the measured abundance fitness for the input variant. Input: F47G
Response line: -0.661

Prompt line: Please report the recorded abundance fitness for V37N .
Response line: -0.426

Prompt line: Tell me the measured abundance fitness of P53K , please.
Response line: -0.012

Prompt line: Entry under review: T34I . Reported abundance fitness?
Response line: -0.866

Prompt line: Which abundance fitness value is on record for K26T ?
Response line: -0.61

Prompt line: # lookup: abundance fitness of T34G
Response line: -0.828

Prompt line: Sample P53C — what was its abundance fitness?
Response line: -0.514

Prompt line: For the variant shown here, V49F , give the reported abundance fitness.
Response line: -0.842

Prompt line: Field request: abundance fitness | item: Y35R
Response line: 0.2
